B1: library; a variant is named by its letters at N, in order (parent)
chain: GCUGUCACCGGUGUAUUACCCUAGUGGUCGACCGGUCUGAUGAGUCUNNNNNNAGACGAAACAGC

Variants of: B1
Experiment: normalized RNA/DNA level with ligand (relative to sTRSVctl = 100) (log10 (% of sTRSVctl)); ligand: hypoxanthine (xanthine aptamer); higher = less ribozyme self-cleavage, higher mRNA level
Conditions: ligand concentration (+) RNA-Seq: 5 mM, HEK293T, reporter: mCherry (pCS4076), ligand present: yes
PARAMETER: normalized RNA/DNA level with ligand (log10)
Please give only the number in your answer, with no unit.

Past entries and their recorded results:
{"MUTATION NAME": "UUACCC", "RECORDED RESULT": 1.97}
{"MUTATION NAME": "UUCCGC", "RECORDED RESULT": 2.01}

Given UUAAAG , state its recorded normalized RNA/DNA level with ligand (log10).
1.89

Same read-out for CAAGCU ?
1.98

Same read-out for GGAACG ?
1.88

Same read-out for GAAGAG ?
1.79

Same read-out for AUCGCC ?
1.95

Same read-out for GGUGGC ?
1.89

Same read-out for UUUAGC ?
1.95

Same read-out for ACCGUA ?
1.93

Same read-out for GGUGAU ?
1.93
